Data provenance is the supplement of paper PMC7877785.

- protocolText: self-splicing fitness, log relative to wild type (ln ratio); higher = more splicing; Tetrahymena group I intron in knt gene, E. coli kanamycin selection, DiMSum; sequences stand for … in CUCUCU…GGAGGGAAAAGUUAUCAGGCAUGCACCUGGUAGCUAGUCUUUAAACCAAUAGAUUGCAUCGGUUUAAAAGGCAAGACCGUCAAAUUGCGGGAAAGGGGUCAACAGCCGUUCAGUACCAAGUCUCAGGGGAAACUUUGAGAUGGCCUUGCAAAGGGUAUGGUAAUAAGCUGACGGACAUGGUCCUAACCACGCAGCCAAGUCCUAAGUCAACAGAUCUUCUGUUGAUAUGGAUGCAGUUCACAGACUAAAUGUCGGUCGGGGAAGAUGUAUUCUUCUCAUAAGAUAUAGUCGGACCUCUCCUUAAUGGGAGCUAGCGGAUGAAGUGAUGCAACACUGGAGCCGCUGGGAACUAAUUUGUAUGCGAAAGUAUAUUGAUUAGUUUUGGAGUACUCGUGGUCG;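 note: selection with 25 µg/mL kanamycin versus none on LB agar overnight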
- experimentalContext: 37 °C
Classify by measured self-splicing fitness (ln): True if it is equal to or exceeds -0.9, False if it is smaller.

| primarySequence | classification |
| --- | --- |
| CAGCAGCAAUAUUACGUCCA | True |

Task: Has `AAUCAGCAAUAUUACGACGC` a recorded self-splicing fitness (ln) greater than or equal to -0.9?
Result: False

Task: Confirm if self-splicing fitness (ln) reported for the sequence `AGAAAGCAAUAUUACGUCUU` is -0.9 or above.
Result: True

Task: Would you say `AUUAAGCAAUAUUACGCAUC` shows self-splicing fitness (ln) at minimum -0.9?
Result: False

Task: Decide: self-splicing fitness (ln) of `GAGCAGCAAUAUUACGAUUA` >= -0.9?
Result: False

Task: Check the entry `UGUCAGCAAUAUUACGACCU` : does self-splicing fitness (ln) equal or exceed -0.9?
Result: True

Task: Hello, I need to know if `GUCUAGCAAUAUUACGAUGU` has measured self-splicing fitness (ln) not below -0.9. Thanks!
Result: True

Task: Has `UGCUAGCAAUAUUACGUACC` a recorded self-splicing fitness (ln) greater than or equal to -0.9?
Result: True

Task: Kindly determine if self-splicing fitness (ln) recorded for `AGGAAGCAAUAUUACGCGCA` is above or exactly -0.9.
Result: True

Task: Hi team, for `CUUCAGCAAUAUUACGAUUU` , is the recorded self-splicing fitness (ln) at or above -0.9?
Result: False

Task: Answer whether self-splicing fitness (ln) of `GCAUAGCAAUAUUACGGUUG` is greater than or equal to -0.9.
Result: False

Task: Hi team, for `AGGCAGCAAUAUUACGCUGC` , is the recorded self-splicing fitness (ln) at or above -0.9?
Result: False

Task: Is reported self-splicing fitness (ln) greater than or equal to -0.9 here: `UUGUAGCAAUAUUACGUAAC`
Result: False

Task: Check if self-splicing fitness (ln) >= -0.9 (inclusive). Item: `CCGGAGCAAUAUUACGUGGG`
Result: False

Task: Assess whether reported self-splicing fitness (ln) for `AGGUAGCAAUAUUACGUUUC` sits at -0.9 or higher.
Result: False

Task: Is self-splicing fitness (ln) for `GAUAAGCAAUAUUACGUCAU` at or above -0.9?
Result: False

Task: // inclusive: self-splicing fitness (ln) at least -0.9? input: `CAAGAGCAAUAUUACGUAUC`
Result: False

Task: Given the entry `UUGUAGCAAUAUUACGGAAG` , answer whether its self-splicing fitness (ln) meets or surpasses -0.9.
Result: False

Task: Check this sequence for self-splicing fitness (ln) at or above -0.9: `GUGAAGCAAUAUUACGCACG`
Result: True

Task: // inclusive: self-splicing fitness (ln) at least -0.9? input: `CCUCAGCAAUAUUACGAAGG`
Result: False

Task: Could you tell me if the measured self-splicing fitness (ln) of `CCAAAGCAAUAUUACGUACC` reaches -0.9 or more?
Result: False
